Assay System: full length p300 (Homo sapiens)
pIC50: −log10 of the molar value.
Quantity: pIC50

{"Molecule": "CC(=O)N1CCC(Oc2ccc(NC(=O)C(NCCc3ccc(C#N)cc3)c3ccccc3)nc2)CC1 (single isomer, unassigned) [9 Isomer 1]", "Assay System": "full length p300 (Homo sapiens)", "pIC50": 8.38}

[a] CC(=O)N1CCC(Oc2ccc(NC(=O)C(NCCc3ccc(C#N)cc3)c3ccccc3)nc2)CC1 (single isomer, unassigned) [9 Isomer 2]
[b] CN1CCC(Oc2ccc(NC(=O)C(NCCc3ccc(C#N)cc3)c3ccccc3)nc2)CC1 (single isomer, unassigned) [1 Isomer 2]
For this pair, a and b , which shows a numerically higher pIC50? Please indicate the selected item by its label.
a
(a: 6.99, b: 6.62)

----------
Assay System: full length p300 (Homo sapiens)
Construct: used 6 nM purified full length p300 (purchased from Active Motif); purchased Active Motif
Protocol Text: Full length p300 SPA assay
Assay type: biochemical
Condition Context: 6 nM purified full length p300; read-out: FL P300 IC50
pIC50: −log10 of the molar value.
Quantity: pIC50

[I] N#Cc1ccc(CCNC(C(=O)Nc2ccc(OC3CCOCC3)cn2)c2ccccc2)cc1 (single isomer, unassigned) [5 Isomer 1]
[II] N#Cc1ccc(CCNC(C(=O)Nc2ccc(OC3CCOCC3)cn2)c2ccccc2)cc1 (single isomer, unassigned) [5 Isomer 2]
For this pair, I and II , which shows a numerically higher pIC50? Please indicate the selected item by its label.
I
(I: 8.43, II: 6.86)

----------
Assay System: p300 HAT domain (residues 1287-1666) (Homo sapiens)
Sequence (Q09472 1287-1666): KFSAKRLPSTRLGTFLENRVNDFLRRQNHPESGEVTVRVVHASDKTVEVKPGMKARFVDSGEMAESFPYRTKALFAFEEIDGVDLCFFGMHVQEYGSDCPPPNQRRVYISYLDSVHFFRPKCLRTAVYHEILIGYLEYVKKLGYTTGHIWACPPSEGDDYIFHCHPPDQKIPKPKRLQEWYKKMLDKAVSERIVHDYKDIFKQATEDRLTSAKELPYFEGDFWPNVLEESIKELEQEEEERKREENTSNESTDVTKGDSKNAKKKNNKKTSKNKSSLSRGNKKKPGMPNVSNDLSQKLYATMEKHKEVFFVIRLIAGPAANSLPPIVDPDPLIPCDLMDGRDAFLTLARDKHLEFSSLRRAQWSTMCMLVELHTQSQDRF
Quantity: IC50 (nM)

{"Compound": "CN1CCC(Oc2ccc(NC(=O)C(NCCc3ccc(Cl)cc3)c3ccccc3)nc2)CC1 (single isomer, unassigned) [11 Isomer 1]", "Unit Name": "nM", "Meas Value": 26.6}
{"Compound": "CC(=O)N1CC(Oc2ccc(NC(=O)C(NCC(C)c3ccc(C#N)cc3)c3cccc(F)c3)nc2)C1 (single isomer, unassigned) [23 Isomer 2]", "Unit Name": "nM", "Meas Value": 965}
{"Compound": "CC(=O)N1CC[C@H](Oc2ccc(NC(=O)C(NCCc3ccc(C#N)cc3)c3ccccc3)nc2)C1 (single isomer, unassigned) [13 Isomer 2]", "Unit Name": "nM", "Meas Value": 59.9}

[a] Cn1cc(COc2ccc(NC(=O)C(NCCc3ccc(Cl)cc3)c3ccccc3)nc2)cn1 (single isomer, unassigned) [8 Isomer 1]
[b] CC(Oc1ccc(NC(=O)C(NCCc2ccc(C#N)cc2)c2ccccc2)nc1)c1cnn(C)c1 (single isomer, unassigned) [18 Isomer 1]
Of a and b , which carries the smaller reported IC50 figure? Please indicate the selected item by its label.
b
(b: 311 nM, a: 1360 nM)

[I] CC(Oc1ccc(NC(=O)C(NCCc2ccc(C#N)cc2)c2ccccc2)nc1)c1cnn(C)c1 (single isomer, unassigned) [18 Isomer 2]
[II] CC(=O)N1CC(Oc2ccc(NC(=O)C(NCC(C)c3ccc(C#N)cc3)c3cnn(C)c3)nc2)C1 (single isomer, unassigned) [24 Isomer 2]
Of I and II , which carries the smaller reported IC50 figure? Please indicate the selected item by its label.
I
(I: 209 nM, II: 578 nM)
